Test system: L1210 leukemia ip in BDF1 mice, survival T/C
ASSAY_NOTES: NCI In Vivo Anticancer Drug Screen. Data for tumor model L1210 Leukemia (intraperitoneal) in B6D2F1 (BDF1) mice
RUN_CONDITIONS: endpoint: mean survival time; dose: 200.0 mg/kg/injection; schedule: Q04DX003 (ip); vehicle: Klucel (hydroxypropylcellulose) (HPC); higher = longer survival
Toxic doses and inconclusive results are not listed.
Assign T/C to each entry below.

So, "O=C(COc1ccccc1)Oc1c(Cl)cc(Cl)cc1Cl" ? Its T/C was 100 % of control

Looking up "c1ccc2nc(-c3cc4ccccc4s3)ccc2c1" , I see its T/C listed as 95 % of control

For this compound ( "CCCCCCCCCCCCCCCCOc1ccc2ccccc2c1" ), measured T/C is 102 % of control

Recorded result, "COC(=O)c1ccc(C(=O)OC)c(NC(=O)CC(=O)c2ccc([N+](=O)[O-])cc2)c1" , T/C: 90 % of control

Per the records, this compound ( "CO/C(=C\c1ccc(OC)cc1)C(=O)O" ) has T/C equal to 101 % of control

get_value(item= Cc1ccc(S(=O)(=O)OCC2C3CCC(C4CCC43)C2COS(=O)(=O)c2ccc(C)cc2)cc1 (configuration not stated) , readout=T/C) returns 93 % of control

Input "CCCCCCCSCCSCCSCCCCCCC" . Output T/C: 95 % of control
